- System: Chenopodium album (CHEAL)
- assayOverview: Post-emergence efficacy, Method A
- Format: in vivo
- experimentalConditions: read-out: Control of weed species after post-emergence application, CHEAL
measurementLabel: pest or weed control at 500 g/ha (%)
Number in %, nothing else.

Task: Item "CP(=O)([O-])C[n+]1ccc(-c2ncns2)cc1" with Chenopodium album (CHEAL) - pest or weed control at 500 g/ha?
Result: 90

Task: Item CCOP(C)(=O)C[n+]1ccc(-c2ncns2)cc1 (stereo not shown) with Chenopodium album (CHEAL) - pest or weed control at 500 g/ha?
Result: 60

Task: Item "COP(=O)([O-])C[n+]1ccc(-c2ncns2)cc1" with Chenopodium album (CHEAL) - pest or weed control at 500 g/ha?
Result: 70

Task: Item "CCOP(=O)([O-])C[n+]1ccc(-c2ncns2)cc1" with Chenopodium album (CHEAL) - pest or weed control at 500 g/ha?
Result: 70

* * *

- System: Eleusine indica (ELEIN)
- assayOverview: Post-emergence efficacy, Method A
- Format: in vivo
- experimentalConditions: 500 g/Ha, 100=total damage to plant, 0=no damage, evaluated after 7 and 14 days, read-out: Control of weed species after post-emergence application, ELEIN
Friendly reminder: pest or weed control at 500 g/ha below 50% is T, at or above is F.

Task: Item "Cc1nsc(-c2cc[n+](CS(=O)(=O)[O-])cc2)n1" : pest or weed control at 500 g/ha beneath 50%, strictly?
Result: F

Task: Item "Cn1nnc(-c2cc[n+](CC(=O)O)cc2)n1" : pest or weed control at 500 g/ha beneath 50%, strictly?
Result: T

Task: Item "O=S(=O)([O-])C[n+]1ccc(-c2ncns2)cc1" : pest or weed control at 500 g/ha beneath 50%, strictly?
Result: F

Task: Item "CS(=O)(=O)c1c[n+](CCC(=O)O)ccc1-c1ncns1" : pest or weed control at 500 g/ha beneath 50%, strictly?
Result: T

Task: Item O=C(O)C[n+]1ccc(-c2nc(C(F)(F)F)ns2)cc1 [Compound A1, 2,2,2-trifluoroacetate] : pest or weed control at 500 g/ha beneath 50%, strictly?
Result: F

Task: Item "O=P([O-])(O)C[n+]1ccc(-c2ncns2)cc1" : pest or weed control at 500 g/ha beneath 50%, strictly?
Result: T

Task: Item "Nc1nsc(-c2cc[n+](CCC(=O)O)cc2)n1" : pest or weed control at 500 g/ha beneath 50%, strictly?
Result: T

Task: Item "CNC(=O)c1nc(-c2cc[n+](CCCS(=O)(=O)[O-])cc2)no1" : pest or weed control at 500 g/ha beneath 50%, strictly?
Result: T

* * *

- System: Euphorbia heterophylla (EPHHL)
- assayOverview: Post-emergence efficacy, Method A
- Assay type: in vivo
- experimentalConditions: 500 g/Ha, 100=total damage to plant, 0=no damage, evaluated after 7 and 14 days, read-out: Control of weed species after post-emergence application, EPHHL
Give pest or weed control at 500 g/ha for every item shown.
Number in %, nothing else.

Task: Item O=C(O)C[n+]1ccc(-c2ncns2)cc1 [Compound A6] with Euphorbia heterophylla (EPHHL) - pest or weed control at 500 g/ha?
Result: 100

Task: Item Cn1nnnc1-c1cc[n+](CC(=O)O)cc1 [Compound A33] with Euphorbia heterophylla (EPHHL) - pest or weed control at 500 g/ha?
Result: 40

Task: Item O=C(O)C[n+]1ccc(-c2ccsn2)cc1 [Compound A81] with Euphorbia heterophylla (EPHHL) - pest or weed control at 500 g/ha?
Result: 20

Task: Item Cn1nnnc1-c1cc[n+](CS(=O)(=O)[O-])cc1 [Compound A57] with Euphorbia heterophylla (EPHHL) - pest or weed control at 500 g/ha?
Result: 20

Task: Item O=S(=O)([O-])OCC[n+]1ccc(-c2nnco2)cc1 [Compound A64] with Euphorbia heterophylla (EPHHL) - pest or weed control at 500 g/ha?
Result: 30

Task: Item Cc1nc(-c2cc[n+](CCCS(=O)(=O)[O-])cc2)no1 [Compound A71] with Euphorbia heterophylla (EPHHL) - pest or weed control at 500 g/ha?
Result: 40

Task: Item OCC[n+]1ccc(-c2nnc(-c3ccccc3)o2)cc1 [Compound A69, 2,2,2-trifluoroacetate] with Euphorbia heterophylla (EPHHL) - pest or weed control at 500 g/ha?
Result: 20

Task: Item Cn1nnc(-c2cc[n+](CS(=O)(=O)[O-])cc2)n1 [Compound A35] with Euphorbia heterophylla (EPHHL) - pest or weed control at 500 g/ha?
Result: 50

Task: Item O=C(O)C[n+]1ccc(-c2ccns2)cc1 [Compound A86] with Euphorbia heterophylla (EPHHL) - pest or weed control at 500 g/ha?
Result: 40

Task: Item Cn1nnc(-c2cc[n+](CC(=O)O)cc2)n1 [Compound A34] with Euphorbia heterophylla (EPHHL) - pest or weed control at 500 g/ha?
Result: 0
